- Test system: ALP in normal human articular chondrocytes (NHACs)
- experiment.description: Alkaline Phosphatase (ALP) activity assay (staining and quantitation) in NHACs, prevention of chondrocyte hypertrophy
- Assay type: cell-based
- conditions.used: Chondrocyte, 288 h, human IL-1 beta 10 ng/mL, 12 days, Fast Blue RR staining, high content imaging, read-out: ALP in NHAC IC50
assay.readout: IC50 (µM)
Response body: numeric value in µM, unit text excluded.

Example molecules with recorded IC50:
molecule | target.under.test | IC50 (µM)
COc1ccc(NC(=O)[C@@H]2[C@@H](c3cccc(C(F)(F)F)c3)[C@H]3O[C@@H]2C[C@@H]3O)cc1C(F)(F)F (racemic) [Example 20] | ALP in normal human articular chondrocytes (NHACs) | 14
O=C(Nc1cc(C(F)(F)F)ccn1)[C@@H]1[C@@H](c2cccc(C(F)(F)F)c2)[C@H]2O[C@@H]1C[C@@H]2O (racemic) [Example 4] | ALP in normal human articular chondrocytes (NHACs) | 7.1
COc1cc(NC(=O)[C@@H]2[C@@H](c3cccc(C(F)(F)F)c3)[C@H]3O[C@@H]2C[C@@H]3O)cc(C(F)(F)F)c1 (racemic) [Example 21] | ALP in normal human articular chondrocytes (NHACs) | 24
O=C(Nc1cccc(C(F)(F)F)c1)[C@@H]1[C@@H](c2ccc(C(F)(F)F)nc2)[C@H]2O[C@@H]1C[C@@H]2O (racemic) [Example 82] | ALP in normal human articular chondrocytes (NHACs) | 4.6
Cn1nc(C(F)(F)F)cc1[C@H]1[C@H]2O[C@H](C[C@@H]2O)[C@@H]1C(=O)Nc1cc(C(F)(F)F)ccn1 (racemic) [Example 74] | ALP in normal human articular chondrocytes (NHACs) | 11
O=C(Nc1cccc(C(F)(F)F)c1)[C@@H]1[C@@H](c2ccnc(C(F)(F)F)c2)[C@H]2O[C@@H]1C[C@@H]2O (racemic) [Example 63] | ALP in normal human articular chondrocytes (NHACs) | 18

Prompt: Lab note: need IC50 with ALP in normal human articular chondrocytes (NHACs) for entry CC(C)n1cc([C@H]2[C@H]3O[C@H](C[C@@H]3O)[C@@H]2C(=O)Nc2cc(C(F)(F)F)ccc2C#N)c(C(F)(F)F)n1 (racemic) [Example 84] , please look it up.
Response: 0.29

Prompt: Entry Cn1cc([C@H]2[C@H]3O[C@H](C[C@@H]3O)[C@@H]2C(=O)Nc2ccc(C(F)(F)F)cc2)c(C(F)(F)F)n1 (racemic) [Example 29] please
Response: 11

Prompt: Entry O=C(Nc1ccc(C(F)(F)F)c(Cl)c1)[C@@H]1[C@@H](c2cccc(C(F)(F)F)c2)[C@H]2O[C@@H]1C[C@@H]2O (racemic) [Example 2] please
Response: 8.4

Prompt: Entry Cn1cc([C@H]2[C@H]3O[C@H](C[C@@H]3O)[C@@H]2C(=O)Nc2cc(C(F)(F)F)cc(C(F)(F)F)c2)c(C(F)(F)F)n1 (racemic) [Example 50] please
Response: 2.3

Prompt: Entry O=C(Nc1ccc(F)c(C(F)(F)F)c1)[C@@H]1[C@@H](c2cccc(C(F)(F)F)c2)[C@H]2O[C@@H]1C[C@@H]2O (racemic) [Example 16] please
Response: 12

---

- System: ALP in normal human articular chondrocytes (NHACs)
- experiment.description: Alkaline Phosphatase (ALP) activity assay (staining and quantitation) in NHACs, prevention of chondrocyte hypertrophy
- Type: cell-based
- conditions.used: value in parentheses, human IL-1 beta 10 ng/mL, 12 days
assay.readout: ALP in NHAC (% Efficacy) (%)
Response body: numeric value in %, unit text excluded.

Example compounds with recorded ALP in NHAC (% Efficacy):
compound | unit.spec | ALP in NHAC (% Efficacy)
Cn1cc([C@H]2[C@H]3O[C@H](C[C@@H]3O)[C@@H]2C(=O)Nc2cc(C(F)(F)F)ccn2)c(C(F)(F)F)n1 (single isomer, unassigned) [Example 38a] | % | 81
COc1cc([C@@H]2[C@@H]3O[C@@H](C[C@H]3O)[C@H]2C(=O)Nc2cc(C(F)(F)F)ccc2C#N)ccn1 (single isomer, unassigned) [Example 78b] | % | 88
Cn1cc([C@H]2[C@H]3O[C@H](C[C@@H]3O)[C@@H]2C(=O)Nc2cc(C(F)(F)F)ccc2C#N)c(C(F)(F)F)n1 (single isomer, unassigned) [Example 49a] | % | 101

Prompt: Could you share which ALP in NHAC (% Efficacy) value was measured for N#Cc1ccc(C(F)(F)F)cc1NC(=O)[C@@H]1[C@@H](c2cccc(C(F)(F)F)c2)[C@H]2O[C@@H]1C[C@@H]2O (single isomer, unassigned) [Example 48b] ?
Response: 98

Prompt: Entry Cn1cc([C@H]2[C@H]3O[C@H](C[C@@H]3O)[C@@H]2C(=O)Nc2cc(C(F)(F)F)c(Cl)cn2)c(C(F)(F)F)n1 (single isomer, unassigned) [Example 36b] please
Response: 83

Prompt: Entry O=C(Nc1ccc(C(F)(F)F)c(Cl)n1)[C@@H]1[C@@H](c2cccc(C(F)(F)F)c2)[C@H]2O[C@@H]1C[C@@H]2O (single isomer, unassigned) [Example 25a] please
Response: 89
